Assay: BT084 cell growth, single and combined drugs, ICGC_MB145, cisplatin and BGB IC40 combos (AID 1671461);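 note: cells exposed to drugs for 96 hours; 0% = vehicle DMSO and 100% = high DMSO full killing control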
Details: BT084 medulloblastoma cells, drug combinations, cisplatin combination, at 0.5 µM, stronger effect = higher value
measured parameter: inhibition (%)
Output spec: scalar in %, unitless text.

Past entries and their recorded results:
>  <compound>
O=c1ccn(C2CC(O)C(CO)O2)c(=O)[nH]1 (stereo not given)

>  <inhibition / %>
-0.373

$$$$
>  <compound>
Cc1cn(C2CC(O)C(COP(=O)(O)OP(=O)(O)OP(=O)(O)O)O2)c(=O)[nH]c1=O (stereo not given)

>  <inhibition / %>
4.31

$$$$
>  <compound>
CC(Oc1cc(-c2cnn(C3CCNCC3)c2)cnc1N)c1c(Cl)ccc(F)c1Cl (stereo not given)

>  <inhibition / %>
-5.89

$$$$
>  <compound>
Cc1cc(C)c(Nc2ccnc(Nc3ccc(C#N)cc3)n2)c(C)c1

>  <inhibition / %>
-23.4

$$$$
>  <compound>
CC(C)(O)[C@H]1CC[C@@](C)(C2[C@@H](O)C[C@@]3(C)[C@@H]4C[C@H](O)C5C(C)(C)[C@@H](O)CCC56CC46CC[C@]23C)O1 (stereo not given in full)

>  <inhibition / %>
-3.58

$$$$

What the record says about COc1nc(N)nc2c1ncn2[C@@H]1O[C@H](CO)[C@@H](O)[C@H]1O : inhibition is -30.4

What the record says about C[C@@H]1COCCN1c1cc(C2(S(C)(=O)=O)CC2)nc(-c2cccc3[nH]ccc23)n1 : inhibition is 14.1

What the record says about Nc1ccn(C2CCC(CO)O2)c(=O)n1 (stereo not given) : inhibition is -0.865

What the record says about O=C(CCCCCCC(=O)NO)NO : inhibition is -13

What the record says about Nc1ccccc1NC(=O)c1cnccn1 : inhibition is -9.24
